# inhibition at 10 µM per entry
- tested-on: NO synthase (Rattus norvegicus, UniProt P29476)
- Construct: the supernatant was then removed by decantation and frozen in portions at −80° C; from tissue; host or cells: rat cerebellum, 20,000 g supernatant of homogenate
- procedure-details: HTS-NOS assay (NOS assay): conversion of radioactive arginine, cation-exchanger filter plate
- Type: biochemical
- measurement-setup: read-out: HTS-NOS assay: % inhibition (10 μM)

- compound: "Cc1cc(C)n2c(NC(C)(C)CC(C)(C)C)c(-c3cccc(Cl)c3Cl)nc2c1 [Example 84]"
  inhibition at 10 µM / %: 54
- compound: "CC(=O)N(c1c(C)cccc1C)c1c(-c2cccc(O)c2)nc2nc(C)cc(C)n12 [Example 272]"
  inhibition at 10 µM / %: 54
- compound: "CSc1ccc(-c2nc3ncccn3c2N(C(C)=O)C(C)(C)C)s1 [Example 221]"
  inhibition at 10 µM / %: 54
- compound: "Cc1ccn2c(NC(C)(C)C)c(-c3ccc(C4OCCO4)o3)nc2c1 [Example 65]"
  inhibition at 10 µM / %: 62
- compound: "Cc1ccn2c(NC(C)(C)CC(C)(C)C)c(-c3cccnc3)nc2c1 [Example 15]"
  inhibition at 10 µM / %: 59
- compound: "Cc1ccn2c(NC(C)(C)C)c(-c3ccccn3)nc2c1 [Example 76]"
  inhibition at 10 µM / %: 67
- compound: "CC(C)(C)Nc1c(-c2ccc(C(=O)O)s2)nc2cnccn12 [Example 119]"
  inhibition at 10 µM / %: 56
- compound: "Cc1ccn2c(NC(C)(C)CC(C)(C)C)c(-c3ccc(Br)o3)nc2c1 [Example 86]"
  inhibition at 10 µM / %: 54
- compound: "CC(=O)N(c1c(-c2cccc(O)c2)nc2cc(C)cc(C)n12)C(C)(C)CC(C)(C)C [Example 181]"
  inhibition at 10 µM / %: 60

====

Overview of reported inhibition at 10 µM across a group of molecules:
- tested-on: NO synthase (Rattus norvegicus, UniProt P29476)
- Construct: the supernatant was then removed by decantation and frozen in portions at −80° C; from tissue; host or cells: rat cerebellum, 20,000 g supernatant of homogenate
- procedure-details: HTS-NOS assay (NOS assay): conversion of radioactive arginine, cation-exchanger filter plate
- Assay type: biochemical
- measurement-setup: read-out: HTS-NOS assay: % inhibition (10 μM)

- smiles-representation: "CC(=O)N(c1c(-c2ccc(CO)o2)nc2cc(C)cc(C)n12)C(C)(C)CC(C)(C)C"
  inhibition at 10 µM, %: 50
- smiles-representation: "Cc1ccc2nc(-c3ccc(C(=O)O)s3)c(NC(C)(C)C)n2c1"
  inhibition at 10 µM, %: 52
- smiles-representation: "CC(=O)N(c1c(C)cccc1C)c1c(-c2ccc(C(=O)O)s2)nc2ccc(C)cn12"
  inhibition at 10 µM, %: 55
- smiles-representation: "COc1ccc(-c2nc3cc(C)ccn3c2Nc2c(C)cccc2C)cc1OC"
  inhibition at 10 µM, %: 64
- smiles-representation: "CC(=O)N(c1c(-c2ccc([N+](=O)[O-])o2)nc2cc(C)cc(C)n12)C1CCCCC1"
  inhibition at 10 µM, %: 67
- smiles-representation: "Cc1ccn2c(NC(C)(C)CC(C)(C)C)c(-c3ccco3)nc2c1"
  inhibition at 10 µM, %: 50
- smiles-representation: "CC(=O)N(c1c(-c2cc(C)c(C)o2)nc2ccccn12)C(C)(C)CC(C)(C)C"
  inhibition at 10 µM, %: 57
- smiles-representation: "Cc1ccn2c(NC(C)(C)CC(C)(C)C)c(-c3ccc(C(=O)O)o3)nc2c1"
  inhibition at 10 µM, %: 60
- smiles-representation: "Cc1cc(C)n2c(NC(C)(C)CC(C)(C)C)c(-c3ccco3)nc2c1"
  inhibition at 10 µM, %: 52
- smiles-representation: "CCCCNc1c(-c2cccc(O)c2)nc2cc(C)cc(C)n12"
  inhibition at 10 µM, %: 61
- smiles-representation: "CC(=O)N(c1c(-c2ccco2)nc2c(C(=O)O)cccn12)C(C)(C)CC(C)(C)C"
  inhibition at 10 µM, %: 62
- smiles-representation: "CCCCN(C(C)=O)c1c(-c2cc(OC)c(OC)c(OC)c2)nc2cnccn12"
  inhibition at 10 µM, %: 51
- smiles-representation: "CC(=O)N(c1c(-c2cc3ccccc3o2)nc2cc(C)cc(C)n12)C(C)(C)CC(C)(C)C"
  inhibition at 10 µM, %: 63
- smiles-representation: "CCCCN(C(C)=O)c1c(-c2ccc(F)cc2Cl)nc2ccccn12"
  inhibition at 10 µM, %: 55
- smiles-representation: "Cc1ccn2c(NC(C)(C)C)c(-c3cccc4ccccc34)nc2c1"
  inhibition at 10 µM, %: 67
- smiles-representation: "CC(=O)N(c1c(-c2ccco2)nc2c(Br)cc(Br)cn12)C(C)(C)CC(C)(C)C"
  inhibition at 10 µM, %: 67
- smiles-representation: "Cc1ccn2c(NC3CCCCC3)c(-c3cccc4ccccc34)nc2c1"
  inhibition at 10 µM, %: 56
- smiles-representation: "CC(=O)N(c1c(-c2cccs2)nc2c(Cl)cc(Cl)cn12)C(C)(C)C"
  inhibition at 10 µM, %: 53

====

- tested-on: NO synthase (Rattus norvegicus, UniProt P29476)
- Construct: the supernatant was then removed by decantation and frozen in portions at −80° C; from tissue; host or cells: rat cerebellum, 20,000 g supernatant of homogenate
- procedure-details: HTS-NOS assay (NOS assay): conversion of radioactive arginine, cation-exchanger filter plate
- Type: biochemical
- measurement-setup: read-out: HTS-NOS assay: % inhibition (10 μM)
measure-name: inhibition at 10 µM (%)

- smiles-representation: "CC(=O)N(c1c(-c2ccc(C(=O)O)o2)nc2cc(C)ccn12)C(C)(C)C"
  tested-on: "NO synthase (Rattus norvegicus, UniProt P29476)"
  units-text: "%"
  value-observed: 54
- smiles-representation: "CC(=O)N(c1c(-c2ccc(C)cc2)nc2cc(C)cc(C)n12)C(C)(C)CC(C)(C)C"
  tested-on: "NO synthase (Rattus norvegicus, UniProt P29476)"
  units-text: "%"
  value-observed: 67
- smiles-representation: "Cc1ccn2c(NC(C)(C)CC(C)(C)C)c(-c3ccc(-c4ccccc4Cl)o3)nc2c1"
  tested-on: "NO synthase (Rattus norvegicus, UniProt P29476)"
  units-text: "%"
  value-observed: 52
- smiles-representation: "CC(=O)N(c1c(-c2ccc(C3OCCO3)o2)nc2cc(C)cc(C)n12)C(C)(C)CC(C)(C)C"
  tested-on: "NO synthase (Rattus norvegicus, UniProt P29476)"
  units-text: "%"
  value-observed: 50
- smiles-representation: "CCCCN(C(C)=O)c1c(-c2ccccn2)nc2c(C(=O)O)cccn12"
  tested-on: "NO synthase (Rattus norvegicus, UniProt P29476)"
  units-text: "%"
  value-observed: 52
- smiles-representation: "CCCCN(C(C)=O)c1c(-c2ccccc2C)nc2ncccn12"
  tested-on: "NO synthase (Rattus norvegicus, UniProt P29476)"
  units-text: "%"
  value-observed: 54
- smiles-representation: "Cc1ccn2c(NC3CCCCC3)c(C)nc2c1"
  tested-on: "NO synthase (Rattus norvegicus, UniProt P29476)"
  units-text: "%"
  value-observed: 55
- smiles-representation: "Cc1cccn2c(NC(C)(C)C)c(C3CCCCC3)nc12"
  tested-on: "NO synthase (Rattus norvegicus, UniProt P29476)"
  units-text: "%"
  value-observed: 53
- smiles-representation: "Cc1ccn2c(NC3CCCCC3)c(-c3ccco3)nc2c1"
  tested-on: "NO synthase (Rattus norvegicus, UniProt P29476)"
  units-text: "%"
  value-observed: 64
- smiles-representation: "Cc1cc(C)n2c(NC(C)(C)CC(C)(C)C)c(C3CCCCC3)nc2c1"
  tested-on: "NO synthase (Rattus norvegicus, UniProt P29476)"
  units-text: "%"
  value-observed: 71
- smiles-representation: "Cc1cc(C)n2c(NC3CCCCC3)c(-c3ccncc3)nc2c1"
  tested-on: "NO synthase (Rattus norvegicus, UniProt P29476)"
  units-text: "%"
  value-observed: 62
- smiles-representation: "CCCc1cccc2nc(-c3ccco3)c(N(C(C)=O)C(C)(C)CC(C)(C)C)n12"
  tested-on: "NO synthase (Rattus norvegicus, UniProt P29476)"
  units-text: "%"
  value-observed: 53
- smiles-representation: "Cc1ccn2c(NC(C)(C)CC(C)(C)C)c(-c3cc4ccccc4o3)nc2c1"
  tested-on: "NO synthase (Rattus norvegicus, UniProt P29476)"
  units-text: "%"
  value-observed: 60
- smiles-representation: "Cc1cc(C)n2c(NC(C)(C)CC(C)(C)C)c(-c3ccc(Cl)cc3Cl)nc2c1"
  tested-on: "NO synthase (Rattus norvegicus, UniProt P29476)"
  units-text: "%"
  value-observed: 68
- smiles-representation: "CC(=O)N(c1c(-c2ccc(C)cc2)nc2cc(C)ccn12)C(C)(C)CC(C)(C)C"
  tested-on: "NO synthase (Rattus norvegicus, UniProt P29476)"
  units-text: "%"
  value-observed: 55
- smiles-representation: "Cc1cccn2c(NC(C)(C)CC(C)(C)C)c(C3CCCCC3)nc12"
  tested-on: "NO synthase (Rattus norvegicus, UniProt P29476)"
  units-text: "%"
  value-observed: 51
- smiles-representation: "CCCCN(C(C)=O)c1c(-c2ccc(C)cc2)nc2ccc(C)cn12"
  tested-on: "NO synthase (Rattus norvegicus, UniProt P29476)"
  units-text: "%"
  value-observed: 53
- smiles-representation: "Cc1ccn2c(NC(C)(C)CC(C)(C)C)c(C)nc2c1"
  tested-on: "NO synthase (Rattus norvegicus, UniProt P29476)"
  units-text: "%"
  value-observed: 61
- smiles-representation: "CCCCNc1c(-c2ccc(Cl)cc2Cl)nc2ccc(C)cn12"
  tested-on: "NO synthase (Rattus norvegicus, UniProt P29476)"
  units-text: "%"
  value-observed: 50
- smiles-representation: "CC(=O)N(c1c(-c2ccccn2)nc2cc(C)cc(C)n12)C1CCCCC1"
  tested-on: "NO synthase (Rattus norvegicus, UniProt P29476)"
  units-text: "%"
  value-observed: 73
- smiles-representation: "COc1ccc(-c2nc3cc(C)ccn3c2NC(C)(C)CC(C)(C)C)cc1OC"
  tested-on: "NO synthase (Rattus norvegicus, UniProt P29476)"
  units-text: "%"
  value-observed: 53
- smiles-representation: "Cc1ccc2nc(-c3ccncc3)c(NC(C)(C)CC(C)(C)C)n2c1"
  tested-on: "NO synthase (Rattus norvegicus, UniProt P29476)"
  units-text: "%"
  value-observed: 68
- smiles-representation: "Cc1cc(C)n2c(Nc3c(C)cccc3C)c(-c3cccc(O)c3)nc2c1"
  tested-on: "NO synthase (Rattus norvegicus, UniProt P29476)"
  units-text: "%"
  value-observed: 61
- smiles-representation: "COc1cc(-c2nc3nc(Cl)cc(N)n3c2N(C(C)=O)C2CCCCC2)ccc1OC(C)=O"
  tested-on: "NO synthase (Rattus norvegicus, UniProt P29476)"
  units-text: "%"
  value-observed: 51
- smiles-representation: "CCCCN(C(C)=O)c1c(-c2cccc(Cl)c2Cl)nc2ncccn12"
  tested-on: "NO synthase (Rattus norvegicus, UniProt P29476)"
  units-text: "%"
  value-observed: 65
- smiles-representation: "Cc1ccn2c(NC(C)(C)CC(C)(C)C)c(-c3ccncc3)nc2c1"
  tested-on: "NO synthase (Rattus norvegicus, UniProt P29476)"
  units-text: "%"
  value-observed: 69
- smiles-representation: "CCc1ccn2c(Nc3ccc(F)c(Cl)c3)c(-c3ccc(-c4cccc(Cl)c4)o3)nc2c1"
  tested-on: "NO synthase (Rattus norvegicus, UniProt P29476)"
  units-text: "%"
  value-observed: 52
- smiles-representation: "CC(=O)N(c1c(-c2ccco2)nc2cc(C)ccn12)C1CCCCC1"
  tested-on: "NO synthase (Rattus norvegicus, UniProt P29476)"
  units-text: "%"
  value-observed: 54
- smiles-representation: "Cc1cc(C)n2c(NC(C)(C)CC(C)(C)C)c(-c3ccc(CO)o3)nc2c1"
  tested-on: "NO synthase (Rattus norvegicus, UniProt P29476)"
  units-text: "%"
  value-observed: 55
- smiles-representation: "Cc1ccn2c(NC3CCCCC3)c(-c3ccncc3)nc2c1"
  tested-on: "NO synthase (Rattus norvegicus, UniProt P29476)"
  units-text: "%"
  value-observed: 65
- smiles-representation: "CC(=O)N(c1c(-c2cccnc2)nc2cc(C)ccn12)C(C)(C)C"
  tested-on: "NO synthase (Rattus norvegicus, UniProt P29476)"
  units-text: "%"
  value-observed: 59
- smiles-representation: "CC(=O)N(c1c(-c2ccc([N+](=O)[O-])o2)nc2cc(C)ccn12)C(C)(C)C"
  tested-on: "NO synthase (Rattus norvegicus, UniProt P29476)"
  units-text: "%"
  value-observed: 54
- smiles-representation: "Cc1ccn2c(NC(C)(C)C)c(C)nc2c1"
  tested-on: "NO synthase (Rattus norvegicus, UniProt P29476)"
  units-text: "%"
  value-observed: 65
- smiles-representation: "COc1ccccc1-c1nc2cc(C)cc(C)n2c1N(C(C)=O)C(C)(C)CC(C)(C)C"
  tested-on: "NO synthase (Rattus norvegicus, UniProt P29476)"
  units-text: "%"
  value-observed: 62
- smiles-representation: "CC(=O)N(c1c(C)nc2cc(C)cc(C)n12)C(C)(C)C"
  tested-on: "NO synthase (Rattus norvegicus, UniProt P29476)"
  units-text: "%"
  value-observed: 66
- smiles-representation: "CCc1ccn2c(NCc3ccccc3Cl)c(-c3ccco3)nc2c1"
  tested-on: "NO synthase (Rattus norvegicus, UniProt P29476)"
  units-text: "%"
  value-observed: 52
